Taken from patent US20120021972A1.

# testedOn: human GLP-1 receptor (human, UniProt P43220 24-463)
# Sequence (P43220 24-463): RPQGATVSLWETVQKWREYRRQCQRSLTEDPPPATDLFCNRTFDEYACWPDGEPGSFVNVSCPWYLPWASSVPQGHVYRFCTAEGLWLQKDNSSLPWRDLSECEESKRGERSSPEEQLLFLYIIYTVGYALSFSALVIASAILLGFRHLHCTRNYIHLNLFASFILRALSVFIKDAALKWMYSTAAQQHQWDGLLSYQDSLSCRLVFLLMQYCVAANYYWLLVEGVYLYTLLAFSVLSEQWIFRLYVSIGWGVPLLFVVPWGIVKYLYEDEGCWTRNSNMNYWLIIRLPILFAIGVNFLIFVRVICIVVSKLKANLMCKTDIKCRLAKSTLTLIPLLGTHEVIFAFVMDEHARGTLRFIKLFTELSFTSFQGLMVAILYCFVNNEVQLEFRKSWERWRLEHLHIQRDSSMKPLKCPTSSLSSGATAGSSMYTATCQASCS
# procedureText: cell-based or functional assay
Starred links: 1 amine or outer side, 2 acyl side, 3 side chain; linkers in the order of their positions; H or OH if unused. Non-standard residues stand in square brackets, D forms with d. No end group written: not given here. *: point of attachment. 2,4‑diF‑APPA = 2-amino-5-(2,4-difluorophenyl)pentanoic acid, O=C([C@H](CCCc1ccc(F)cc1F)N[*:1])[*:2]; ACPP = 2-amino-5-(3-chlorophenyl)pentanoic acid, O=C([C@H](CCCc1cccc(Cl)c1)N[*:1])[*:2]; 2CF3,4F‑APPA = 2-amino-5-(4-fluoro-2-(trifluoromethyl)phenyl)pentanoic acid; 2CF3‑APPA = 2-amino-5-(2-(trifluoromethyl)phenyl)pentanoic acid; Bip(2'-Et-4'-OMe) = CCc1cc(OC)ccc1-c1ccc(C[C@H](N)C(=O)O)cc1; Leu(5,5,5,5',5',5'-F6) = N[C@@H](CC(C(F)(F)F)C(F)(F)F)C(=O)O; 2Cl‑APPA = 2-amino-5-(2-chlorophenyl)pentanoic acid; 2F‑APPA = 2-amino-5-(2-fluorophenyl)pentanoic acid; αMePhe(2-F) = C[C@](N)(Cc1ccccc1F)C(=O)O; hhPhe = N[C@@H](CCCc1ccccc1)C(=O)O; aThr = C[C@H](O)[C@H](N)C(=O)O; αMeP = C[C@@]1(C(=O)O)CCCN1; CNB = not defined here; Aib = CC(C)(N)C(=O)O; Moc = COC(=O)*
metricName: cAMP release, % activity, 10 nM (%)

q: What value of cAMP release, % activity, 10 nM has been reported for the following binder? H[Aib][Leu(5,5,5,5',5',5'-F6)]GT[αMePhe(2-F)][aThr]SD[Bip(2'-Et-4'-OMe)][2F‑APPA] [Seq. ID. No. 224: H-Aib-(Hfl)-GT-(α-Me-2F-Phe)-T(allo)-SD-Bip(OMe)-(2F-APPA)]
a: 99

q: What value of cAMP release, % activity, 10 nM has been reported for the following binder? H[Aib]QGTFTSD[Bip(2'-Et-4'-OMe)][2,4‑diF‑APPA] [Seq. ID. No. 62: H-Aib-QGTFTSD-Bip(OMe)-(2,4-diF-APPA)]
a: 78

q: What value of cAMP release, % activity, 10 nM has been reported for the following binder? H[Aib][CNB]GTFTSD[Bip(2'-Et-4'-OMe)][2CF3,4F‑APPA] (reading uncertain) [Seq. ID. No. 80: H-Aib-(CNB)-GTFTSD-Bip(OMe)-(2CF3, 4F-APPA)]
a: 97

q: What value of cAMP release, % activity, 10 nM has been reported for the following binder? H[Aib][CNB]G[aThr][αMePhe(2-F)][aThr]SD[Bip(2'-Et-4'-OMe)][2F‑APPA] (reading uncertain; also: thioamide bond between residues 10 and 11) [Seq. ID. No. 168: H-Aib-(CNB)-G-T(allo)-(α-Me-2F-Phe)-T(allo)-SD-Bip(OMe)-(C═S)-(2F-APPA)]
a: 99

q: What value of cAMP release, % activity, 10 nM has been reported for the following binder? H[Aib][CNB]GTFTSD[Bip(2'-Et-4'-OMe)][2CF3‑APPA] (reading uncertain) [Seq. ID. No. 79: H-Aib-(CNB)-GTFTSD-Bip(OMe)-(2CF3-APPA)]
a: 94

q: What value of cAMP release, % activity, 10 nM has been reported for the following binder? H[Aib][CNB]G[aThr][αMePhe(2-F)][aThr]SD[Bip(2'-Et-4'-OMe)][2F‑APPA] (reading uncertain) [Seq. ID. No. 116: H-Aib-(CNB)-G-T(allo)-(α-Me-2F-Phe)-T(allo)-SD-Bip(OMe)-(2F-APPA)]
a: 88

q: What value of cAMP release, % activity, 10 nM has been reported for the following binder? Moc-H[Aib]QGT[αMePhe(2-F)]TSD[Bip(2'-Et-4'-OMe)][hhPhe] (also: reduced (CH2) bonds between 9-10 and 10-11) [Seq. ID. No. 194: CH3OCO-H-Aib-QGT-(α-Me-2F-Phe)-TSD-(CH2)-Bip(OMe)-(CH2)-(APPA)]
a: 77

q: What value of cAMP release, % activity, 10 nM has been reported for the following binder? H[Aib][CNB]G[aThr][αMePhe(2-F)][aThr]SD[Bip(2'-Et-4'-OMe)][hhPhe] (reading uncertain; also: reduced (CH2) bond between 10 and 11) [Seq. ID. No. 190: H-Aib-(CNB)-G-T(allo)-(α-Me-2F-Phe)-T(allo)-SD-Bip(OMe)-(CH2)-(APPA)]
a: 82

q: What value of cAMP release, % activity, 10 nM has been reported for the following binder? HSQGTFTSD[Bip(2'-Et-4'-OMe)][2Cl‑APPA] [Seq. ID. No. 50: HSQGTFTSD-Bip(OMe)-(2Cl-APPA)]
a: 92

q: What value of cAMP release, % activity, 10 nM has been reported for the following binder? H[αMeP]QGTFTSD[Bip(2'-Et-4'-OMe)][ACPP] [Seq. ID. No. 11: H-(α-Me-Pro)-QGTFTSD-Bip(OMe)-(ACPP)]
a: 99
